Items are presented alongside their recorded log10(Kd).
- EXPERIMENTAL_SYSTEM: T1, α9 nAChR (human, UniProt Q9UGM1 23-238)
- T1 construct: also called target protein α9 nAChR; α9 nicotinic acetylcholine receptor
- T1 sequence (Q9UGM1 23-238 limits assumed): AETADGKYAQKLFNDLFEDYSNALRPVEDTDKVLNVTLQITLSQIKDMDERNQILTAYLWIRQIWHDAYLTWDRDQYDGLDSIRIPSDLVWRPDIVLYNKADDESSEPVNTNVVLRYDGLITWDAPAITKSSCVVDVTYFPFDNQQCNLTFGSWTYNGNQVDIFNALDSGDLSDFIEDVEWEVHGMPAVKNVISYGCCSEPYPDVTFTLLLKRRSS
- ASSAY_PROCEDURE: BLI, α9 nAChR captured on NTA sensor, peptide 1.372-1000 nM in solution
Positions of bridges follow the written chain, without caps; N, C: chain ends. Non-standard residues stand in square brackets, D forms with d. No end group written: not given here.
The base-10 logarithm of Kd, taken with Kd in µM, is what appears here.

Check out these entries, answers already filled in.
| BINDER | log10(Kd) |
| --- | --- |
| GACS[dT]PPS[dC]VLYS (disulfide 3-9, Printed: GACS-(D-Thr)-PPS-(D-Cys)-VLYS (3,9 disulfide bond)) [AJ003-13] | 0.83 |
| GSCS[dT]PPS[dC]ALYS (disulfide 3-9, Printed: GSCS-(D-Thr)-PPS-(D-Cys)-ALYS (3,9 disulfide bond)) [AJ003-19] | -0.50 |

Prompt: State the recorded log10(Kd) for this entry: GSCS[dT]PPS[dC]VLAS (disulfide 3-9, Printed: GSCS-(D-Thr)-PPS-(D-Cys)-VLAS (3,9 disulfide bond)) [AJ003-21]
Response: -0.29

Prompt: Which log10(Kd) value is on record for ASCS[dT]PPS[dC]VLYS (disulfide 3-9, Printed: ASCS-(D-Thr)-PPS-(D-Cys)-VLYS (3,9 disulfide bond)) [AJ003-12] ?
Response: 1.50

Prompt: // log10(Kd) lookup, key: GSCS[dT]PPA[dC]VLYS (disulfide 3-9, Printed: GSCS-(D-Thr)-PPA-(D-Cys)-VLYS (3,9 disulfide bond)) [AJ003-18]
Response: -1.37

Prompt: Look up log10(Kd): GSCA[dT]PPS[dC]VLYS (disulfide 3-9, Printed: GSCA-(D-Thr)-PPS-(D-Cys)-VLYS (3,9 disulfide bond)) [AJ003-14]
Response: 1.14
